This listing pairs sequences with measured PBM E-score.
Target: Nrg2 (UniProt P38082)
Sequence: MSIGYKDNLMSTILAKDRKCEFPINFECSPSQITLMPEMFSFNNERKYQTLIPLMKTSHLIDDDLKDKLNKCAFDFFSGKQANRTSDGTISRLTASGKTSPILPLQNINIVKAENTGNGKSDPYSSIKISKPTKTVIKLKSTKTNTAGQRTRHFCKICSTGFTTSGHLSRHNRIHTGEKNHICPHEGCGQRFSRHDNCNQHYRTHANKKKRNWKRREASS
Test: PBM E-score (8-mer binding enrichment) (E-score (-0.5 to 0.5)); higher = stronger / more preferred TF binding
Details: protein concentration: 100 nM; construct: GST-full length
The full ranking holds about 33,000 sequences; the median of “E-score (-0.5 to 0.5)” is about -8e-05, and the highest 2% start at about 0.23. The full list was thinned out, with the highest values kept by preference.

[
  {
    "RESIDUE STRING": "ACAGACAC",
    "PBM E-score": -0.0421
  },
  {
    "RESIDUE STRING": "TAAAGCCA",
    "PBM E-score": 0.0522
  },
  {
    "RESIDUE STRING": "TATGCAAA",
    "PBM E-score": -0.0899
  },
  {
    "RESIDUE STRING": "AGTGCAAG",
    "PBM E-score": 0.156
  },
  {
    "RESIDUE STRING": "ATTAACTA",
    "PBM E-score": 0.136
  },
  {
    "RESIDUE STRING": "ACTACTAT",
    "PBM E-score": 0.27
  },
  {
    "RESIDUE STRING": "GCTAAGAA",
    "PBM E-score": -0.103
  },
  {
    "RESIDUE STRING": "CGGGCTAG",
    "PBM E-score": -0.0659
  },
  {
    "RESIDUE STRING": "CATGCAAG",
    "PBM E-score": 0.088
  },
  {
    "RESIDUE STRING": "ACGTGGCT",
    "PBM E-score": -0.0848
  },
  {
    "RESIDUE STRING": "CACCTGGG",
    "PBM E-score": -0.0933
  },
  {
    "RESIDUE STRING": "ACTAGTAG",
    "PBM E-score": 0.0854
  },
  {
    "RESIDUE STRING": "CGCATTGC",
    "PBM E-score": 0.148
  },
  {
    "RESIDUE STRING": "TAAAATGA",
    "PBM E-score": 0.254
  },
  {
    "RESIDUE STRING": "CATGCAAA",
    "PBM E-score": 0.246
  },
  {
    "RESIDUE STRING": "CGAGTTTA",
    "PBM E-score": 0.0171
  },
  {
    "RESIDUE STRING": "TCCTATAA",
    "PBM E-score": -0.0317
  },
  {
    "RESIDUE STRING": "AAAAATGA",
    "PBM E-score": 0.0139
  },
  {
    "RESIDUE STRING": "AGTGCAAA",
    "PBM E-score": 0.258
  },
  {
    "RESIDUE STRING": "CTTGCAAG",
    "PBM E-score": 0.181
  },
  {
    "RESIDUE STRING": "ACGCGATA",
    "PBM E-score": 0.0412
  },
  {
    "RESIDUE STRING": "CGCAGCTA",
    "PBM E-score": -0.0329
  },
  {
    "RESIDUE STRING": "AATCGCAG",
    "PBM E-score": 0.16
  },
  {
    "RESIDUE STRING": "ACTGCTCT",
    "PBM E-score": 0.00123
  },
  {
    "RESIDUE STRING": "AACGACTC",
    "PBM E-score": -0.253
  },
  {
    "RESIDUE STRING": "CTAAATGA",
    "PBM E-score": 0.0289
  },
  {
    "RESIDUE STRING": "CTTGCAAC",
    "PBM E-score": 0.124
  },
  {
    "RESIDUE STRING": "GACTTCGA",
    "PBM E-score": -0.106
  },
  {
    "RESIDUE STRING": "AGTCTCGG",
    "PBM E-score": -0.0965
  },
  {
    "RESIDUE STRING": "CAACCGCC",
    "PBM E-score": 0.0219
  }
]
